Biological target: T1, recombinant mouse IL-23R-Fc (mouse, UniProt Q8K4B4 24-374, limits assumed)
T1 construct: whole entry named; not shown: Fc part, not described
T1 sequence (looked up): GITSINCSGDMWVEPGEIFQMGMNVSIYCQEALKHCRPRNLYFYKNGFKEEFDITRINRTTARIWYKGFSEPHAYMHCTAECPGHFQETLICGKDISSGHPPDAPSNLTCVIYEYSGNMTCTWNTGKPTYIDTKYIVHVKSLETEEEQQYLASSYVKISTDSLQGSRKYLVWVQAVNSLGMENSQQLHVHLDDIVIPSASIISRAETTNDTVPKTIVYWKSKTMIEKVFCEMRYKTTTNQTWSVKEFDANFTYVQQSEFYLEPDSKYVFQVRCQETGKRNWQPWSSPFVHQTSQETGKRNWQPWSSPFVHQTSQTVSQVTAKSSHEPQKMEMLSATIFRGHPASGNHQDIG
Assay: competitive ELISA against mouse IL-23 on coated mouse IL-23R-Fc
Bridges are numbered along the chain shown (N, C = ends). Where no end group is shown, it is not given here.

BINDER: CAMTWQDYWLYGRC (disulfide 1-14, also called cyc23.15) [cyclic polypeptide no. 23.19]
IC50 (µM): 12.5
